Where do these numbers come from? They come from patent US20100068204A1.

- target.system: PI3Kα (Homo sapiens)
pIC50: −log10 of the molar value.
quantity.name: pIC50

Check out these entries, answers already filled in.
molecule	observed.measurement
O=c1cc(Oc2cccc(-c3ccc(NCc4cccnc4)cc3)c2)c2ccccc2[nH]1	5.15
CC(Nc1cccc(Oc2cc(=O)[nH]c3ccccc23)c1)c1cccnc1 (stereo not shown)	5.45
CN1CCC(N(C)c2cccc(-c3cccc(Oc4cc(=O)[nH]c5ccccc45)c3)c2)CC1	5.08
O=c1cc(Oc2ccccc2)c2cc(Cl)ccc2[nH]1	5.29

I = Cc1cccc(Oc2cc(=O)[nH]c3ccccc23)c1 [drawing 249]
II = O=c1cc(Oc2cccc(-c3ccc(N4CCOCC4)cc3)c2)c2ccccc2[nH]1
III = CN(C)c1ccc(CNc2cccc(Oc3cc(=O)[nH]c4ccccc34)c2)cn1
IV = O=c1cc(Oc2ccccc2)c2ccccc2[nH]1
V = O=c1cc(Oc2ccc(-c3cccc(O)c3)cc2)c2ccccc2[nH]1
INPUT: # rank_down: sort by pIC50, max first Put the labels in the requested order and write them down.
OUTPUT: I, V, III, II, IV
(I: 6.13, V: 5.78, III: 5.34, II: 4.98, IV: 4.62)

###

- target.system: human TOR (FLAG-TOR) (Homo sapiens)
- procedure.summary: mTOR enzyme assay (DELFIA format, purified enzyme)
- study.conditions: 800 ng/ml FLAG-TOR, 100 μM ATP, 1.25 μM His6-S6K; read-out: mTOR Kinase IC50
pIC50: −log10 of the molar value.
quantity.name: pIC50

CN1CCC(Nc2cccc(Oc3cc(=O)[nH]c4ccccc34)c2)CC1 6.49

a = O=c1cc(Oc2cccc(NCc3ccncc3)c2)c2ccccc2[nH]1
b = CN(C)CCCOc1ccc(-c2cccc(Oc3cc(=O)[nH]c4ccccc34)c2)cn1
INPUT: For the pair a and b , which member has the lower pIC50 number? State the label of the item chosen.
OUTPUT: a
(a: 6.82, b: 7.10)

###

Consider the following pIC50 values measured on PI3Kα (Homo sapiens, UniProt P42336).
Sequence (P42336 whole entry, species assumed): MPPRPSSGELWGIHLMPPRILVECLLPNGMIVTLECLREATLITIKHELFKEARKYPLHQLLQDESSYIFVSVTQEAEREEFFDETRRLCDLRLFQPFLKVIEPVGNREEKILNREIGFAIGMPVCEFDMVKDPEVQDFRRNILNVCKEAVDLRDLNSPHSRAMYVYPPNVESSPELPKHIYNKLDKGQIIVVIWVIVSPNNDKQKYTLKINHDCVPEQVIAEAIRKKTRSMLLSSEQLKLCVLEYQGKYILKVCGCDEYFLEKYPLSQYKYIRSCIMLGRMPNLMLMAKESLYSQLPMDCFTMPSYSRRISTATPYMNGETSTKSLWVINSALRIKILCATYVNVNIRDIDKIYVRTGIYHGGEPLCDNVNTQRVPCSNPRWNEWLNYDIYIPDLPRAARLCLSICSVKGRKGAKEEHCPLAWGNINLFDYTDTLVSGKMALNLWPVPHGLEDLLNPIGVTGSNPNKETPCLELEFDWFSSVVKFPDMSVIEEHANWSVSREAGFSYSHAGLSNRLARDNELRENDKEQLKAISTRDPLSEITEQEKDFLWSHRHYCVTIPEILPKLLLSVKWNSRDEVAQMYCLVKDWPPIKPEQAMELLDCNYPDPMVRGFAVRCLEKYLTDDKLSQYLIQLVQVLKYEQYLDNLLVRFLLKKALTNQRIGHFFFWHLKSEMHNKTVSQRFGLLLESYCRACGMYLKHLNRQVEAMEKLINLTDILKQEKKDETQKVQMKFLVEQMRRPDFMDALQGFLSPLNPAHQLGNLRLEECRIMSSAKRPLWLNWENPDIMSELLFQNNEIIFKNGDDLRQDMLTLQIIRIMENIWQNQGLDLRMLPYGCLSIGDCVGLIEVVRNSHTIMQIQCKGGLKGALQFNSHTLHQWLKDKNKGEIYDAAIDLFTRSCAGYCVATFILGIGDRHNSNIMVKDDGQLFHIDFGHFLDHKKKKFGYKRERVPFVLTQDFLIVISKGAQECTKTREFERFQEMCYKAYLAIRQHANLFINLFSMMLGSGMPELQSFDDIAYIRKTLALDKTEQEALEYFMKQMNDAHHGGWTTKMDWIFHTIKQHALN
Sequence (P27986 whole entry partner, species assumed): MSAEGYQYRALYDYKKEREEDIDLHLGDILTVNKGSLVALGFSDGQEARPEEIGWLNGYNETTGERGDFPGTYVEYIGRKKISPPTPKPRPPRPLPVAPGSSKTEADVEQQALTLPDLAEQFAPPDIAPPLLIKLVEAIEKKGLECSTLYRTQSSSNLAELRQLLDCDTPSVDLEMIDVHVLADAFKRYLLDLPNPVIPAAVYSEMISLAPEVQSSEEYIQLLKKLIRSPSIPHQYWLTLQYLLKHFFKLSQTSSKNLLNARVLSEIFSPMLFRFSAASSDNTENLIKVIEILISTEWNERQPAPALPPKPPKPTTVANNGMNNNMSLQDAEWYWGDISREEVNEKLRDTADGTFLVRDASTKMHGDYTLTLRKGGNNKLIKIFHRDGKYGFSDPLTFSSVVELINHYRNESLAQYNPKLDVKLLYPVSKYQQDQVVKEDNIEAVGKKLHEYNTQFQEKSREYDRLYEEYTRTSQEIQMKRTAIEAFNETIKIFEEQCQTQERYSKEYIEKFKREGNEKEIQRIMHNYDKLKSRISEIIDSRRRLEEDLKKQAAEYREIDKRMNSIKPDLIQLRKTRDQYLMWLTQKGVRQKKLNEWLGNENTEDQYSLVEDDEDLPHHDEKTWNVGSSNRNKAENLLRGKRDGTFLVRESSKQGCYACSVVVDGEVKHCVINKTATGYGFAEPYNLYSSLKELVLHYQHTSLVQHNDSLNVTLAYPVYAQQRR
pIC50: −log10 of the molar value.
quantity.name: pIC50

Please review the following examples before continuing.
compound	pIC50
O=c1cc(Oc2cccc(-c3ccoc3)c2)c2ccccc2[nH]1	5.36
O=c1cc(Oc2ccccc2)c2cc(-c3ccccc3)ccc2[nH]1	5.08

I = O=c1cc(Oc2cccc(C(F)(F)F)c2)c2ccccc2[nH]1
II = O=c1cc(Oc2cccc(NCc3ccccn3)c2)c2ccccc2[nH]1
III = CN(Cc1cccnc1)c1cccc(Oc2cc(=O)[nH]c3ccccc23)c1 [drawing 372]
INPUT: Ascending by pIC50, please. Sort the labels as requested; that list is your answer.
OUTPUT: I, II, III
(I: 5.06, II: 5.46, III: 5.71)

###

- target.system: UniProtKB P42336
quantity.name: IC50 (µM)

P = CN1CCN(c2cccc(Oc3cc(=O)[nH]c4ccccc34)c2)CC1 [drawing 359]
Q = CN(C)CCNc1ccc(-c2cccc(Oc3cc(=O)[nH]c4ccccc34)c2)cc1
INPUT: Lab log: flag the item ( P or Q ) with the smaller IC50 figure. In your reply, give the label of the chosen option.
OUTPUT: Q

###

- target.system: human TOR (FLAG-TOR) (Homo sapiens, UniProt P42345)
- procedure.summary: mTOR enzyme assay (DELFIA format, purified enzyme)
- study.conditions: 800 ng/ml FLAG-TOR, 100 μM ATP, 1.25 μM His6-S6K; read-out: mTOR Kinase IC50
quantity.name: IC50 (nM)

Solved entries:
Nc1cccc(Oc2cc(=O)[nH]c3ccccc23)c1 150
Nc1ccncc1CNc1cccc(Oc2cc(=O)[nH]c3ccccc23)c1 150

A = O=c1cc(Oc2cccc(NCc3ccccc3)c2)c2ccccc2[nH]1
B = O=c1cc(Oc2cccc(-c3cccc(CN4CCOCC4)c3)c2)c2ccccc2[nH]1
C = O=c1cc(Oc2cccc(NCc3ccc(Oc4ccc(F)cc4)cc3)c2)c2ccccc2[nH]1
INPUT: Arrange these 3 compounds in increasing order of IC50. Returns: the labels listed in the requested order.
OUTPUT: A, B, C

###

- Test system: LNCap prostate tumor cells
- procedure.summary: In vitro cell growth assay (MTS), LNCap
- Assay type: cell-based, human
- study.conditions: three days after drug treatment
- Protocol: Cell lines used were human adenocarcinoma (LoVo), […], prostate (LNCap), breast (MDA468, MCF7), colon (HCT116), renal (HTB44 A498), and ovarian (OVCAR3) tumor cell lines. […] Three days after drug treatment, viable cell densities were determined by cell mediated metabolic conversion of the dye MTS, a well-established indicator of cell proliferation in vitro. […] Measuring absorbance at 490 nm generated MTS assay results. […]
pIC50: −log10 of the molar value.
quantity.name: pIC50

Below are worked cases with known answers.
compound	quantity.name	observed.measurement
O=c1cc(Oc2cccc(NCc3ccc(F)nc3)c2)c2ccccc2[nH]1 [drawing 218]	pIC50	4.89
O=c1cc(Oc2cccc(NCc3cccnc3Cl)c2)c2ccccc2[nH]1 [drawing 217]	pIC50	5.38
O=c1cc(Oc2cccc(NCc3ccc(F)nc3)c2)c2ccccc2[nH]1 [drawing 208]	pIC50	5.40

P = Cc1cccc(Oc2cc(=O)[nH]c3ccccc23)c1 [drawing 313]
Q = Cc1cccc(Oc2cc(=O)[nH]c3ccccc23)c1 [drawing 249]
INPUT: Hi, I'm comparing P with Q and wondering which one has the bigger number for pIC50. Any idea? Give the chosen item's label as your response.
OUTPUT: Q

###

- target.system: human TOR (FLAG-TOR) (Homo sapiens, UniProt P42345)
- procedure.summary: mTOR enzyme assay (DELFIA format, purified enzyme)
- study.conditions: 800 ng/ml FLAG-TOR, 100 μM ATP, 1.25 μM His6-S6K; read-out: mTOR Kinase IC50
quantity.name: IC50 (nM)

compound	uom	IC50
CC(C)(C)OC(=O)NC1(CNc2cccc(Oc3cc(=O)[nH]c4ccccc34)c2)CCCC1	nM	230

a = O=c1cc(Oc2cccc(-c3cc[nH]n3)c2)c2ccccc2[nH]1
b = CN(C)CCCOc1ccc(-c2ccc(Oc3cc(=O)[nH]c4ccccc34)cc2)cn1
INPUT: Please choose the item with the lower IC50 value from this pair: a and b Answer format: the label of the selected item.
OUTPUT: a

###

- target.system: human TOR (FLAG-TOR) (Homo sapiens, UniProt P42345)
- procedure.summary: mTOR enzyme assay (DELFIA format, purified enzyme)
- study.conditions: 800 ng/ml FLAG-TOR, 100 μM ATP, 1.25 μM His6-S6K; read-out: mTOR Kinase IC50
pIC50: −log10 of the molar value.
quantity.name: pIC50

compound	quantity.name	observed.measurement
CN1CCN(CCNc2ccc(-c3cccc(Oc4cc(=O)[nH]c5ccccc45)c3)cc2)CC1	pIC50	6.85
Nc1cccc(Oc2cc(=O)[nH]c3cc(Cl)ccc23)c1	pIC50	6.22

A = COc1cccc(Oc2cc(=O)[nH]c3ccccc23)c1
B = O=c1cc(Oc2ccc(C3=NCCCN3)cc2)c2ccccc2[nH]1
INPUT: Lab note: record which item had the higher pIC50, A or B . Mark your answer with the label of the selected entry.
OUTPUT: A
(A: 6.52, B: 6.24)

1 = CCN(CC)CCOc1cccc(Oc2cc(=O)[nH]c3ccccc23)c1
2 = O=c1cc(Oc2cccc(-c3ccccc3)c2)c2ccccc2[nH]1
3 = O=c1cc(Oc2cccc(NCc3cnc4[nH]ccc4c3)c2)c2ccccc2[nH]1
4 = NC(=O)c1ccc(Oc2cc(=O)[nH]c3ccccc23)cc1
INPUT: Parameters: sort_field (pIC50), sort_dir (desc). When ranking, write the labels in the order the request describes.
OUTPUT: 3, 1, 2, 4

1 = O=c1cc(Oc2cccc(-c3ccco3)c2)c2ccccc2[nH]1
2 = CC(C)(C)CNc1ncccc1CNc1cccc(Oc2cc(=O)[nH]c3ccccc23)c1
3 = O=c1cc(Oc2ccccn2)c2ccccc2[nH]1 [drawing 389]
4 = CC(C)(C)C(=O)Nc1ncccc1CNc1cccc(Oc2cc(=O)[nH]c3ccccc23)c1
INPUT: Would you mind ranking these compounds by ascending pIC50? Respond with the label ranking, as requested.
OUTPUT: 3, 1, 2, 4

A = O=c1cc(Oc2cccc(-c3ccnc(N4CCNCC4)c3)c2)c2ccccc2[nH]1
B = O=c1cc(Oc2cccc(-c3cn[nH]c3)c2)c2ccccc2[nH]1
C = CN(C)c1ccc(CNc2cccc(Oc3cc(=O)[nH]c4ccccc34)c2)cn1
D = O=c1cc(Oc2cccc(NCc3ccc(-c4cccc(CO)n4)cc3)c2)c2ccccc2[nH]1
INPUT: Put the entries in order of pIC50, starting with the largest number. List labels; respect the requested ordering.
OUTPUT: D, C, B, A

I = CN1CCN(c2cc(-c3ccc(Oc4cc(=O)[nH]c5ccccc45)cc3)ccn2)CC1
II = Cn1cc(-c2cccc(Oc3cc(=O)[nH]c4ccccc34)c2)cn1
III = CC(C)(C)OC(=O)n1ccc2cc(CNc3cccc(Oc4cc(=O)[nH]c5ccccc45)c3)cnc21
IV = O=c1cc(Oc2cccc(NCc3ccc(-c4cccnc4)cc3)c2)c2ccccc2[nH]1
INPUT: Sort (4 compounds) by pIC50: min first. Thanks in advance for listing the labels in the requested order.
OUTPUT: III, I, II, IV
(III: 5.35, I: 6.25, II: 6.74, IV: 7.05)

a = O=c1cc(Oc2cccc(NCc3cccs3)c2)c2ccccc2[nH]1
b = CC(=O)c1ccc(Oc2cc(=O)[nH]c3ccccc23)cc1
INPUT: Could you tell me which of a and b has the lower pIC50 reading? Write down the label attached to your selection.
OUTPUT: b
(b: 5.73, a: 7.10)

P = COc1ccc(CNc2cccc(Oc3cc(=O)[nH]c4ccccc34)c2)cn1
Q = O=c1cc(Oc2ccccc2)c2cc(-c3cc[nH]n3)ccc2[nH]1
R = O=c1cc(Oc2ccc(OC(F)F)cc2)c2ccccc2[nH]1
INPUT: Output the entries ranked by pIC50 from maximum down to minimum. Put the labels in the order asked and list them.
OUTPUT: P, R, Q

1 = CN1CCN(c2cccc(Oc3cc(=O)[nH]c4ccccc34)c2)CC1 [drawing 359]
2 = O=c1cc(Oc2ccccc2Br)c2ccccc2[nH]1
3 = O=c1cc(Oc2cccc(-c3ccc(NC4CCN(Cc5ccncc5)CC4)cc3)c2)c2ccccc2[nH]1
4 = O=c1cc(Oc2ccccc2)c2cc(Cl)ccc2[nH]1
5 = O=c1cc(Oc2ccccc2C(F)(F)F)c2ccccc2[nH]1
INPUT: Arrange the 5 compounds by rising pIC50, starting with the smallest. Could you list the labels in the order requested?
OUTPUT: 4, 5, 2, 1, 3
(4: 5.17, 5: 5.78, 2: 6.02, 1: 6.43, 3: 6.92)
